- ASSAY_COMMENT: Kinetic (aqueous) solubility in pH 7.4 DPBS, UV quantification
- MEASUREMENT_PARAMETERS: Dulbecco's phosphate-buffered saline (DPBS), pH 7.4, 25 °C, pH 7.4, aqueous buffer, kinetic from dmso stock
EXPERIMENTAL_ENDPOINT: solubility kinetic at 4 h

1) COCCOCCOCCN(CCCOC(=O)NCCC[Si](C)(C)O[Si-2]123(O[Si](C)(C)CCCNC(=O)COCC(=O)O)n4c5c6ccccc6c4N=C4c6ccccc6C(=[N+]41)N=c1c4ccccc4c(n12)=NC1=[N+]3C(=N5)c2ccccc21)CCOCCOCCOC	< 1 µg/mL
